biological target: UniProtKB Q9GZN0; experiment: Agonist activity at GPR88 (unknown origin) transfected into cells assessed as cAMP accumulation by HTRF assay
Sequence (Q9GZN0 whole entry): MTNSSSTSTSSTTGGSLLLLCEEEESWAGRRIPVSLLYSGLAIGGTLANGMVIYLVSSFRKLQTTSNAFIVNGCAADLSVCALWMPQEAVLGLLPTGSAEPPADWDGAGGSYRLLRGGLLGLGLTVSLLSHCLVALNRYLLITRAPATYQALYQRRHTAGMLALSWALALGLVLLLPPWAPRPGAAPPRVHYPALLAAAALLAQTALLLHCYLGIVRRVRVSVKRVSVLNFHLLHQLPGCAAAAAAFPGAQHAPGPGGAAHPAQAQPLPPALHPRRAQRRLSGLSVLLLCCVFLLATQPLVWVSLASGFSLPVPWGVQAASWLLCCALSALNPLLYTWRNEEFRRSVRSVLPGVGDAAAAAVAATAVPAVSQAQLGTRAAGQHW
pEC50: −log10 of the molar value.
property: pEC50

Previously resolved entries follow.
# smiles str, target entity, pEC50
data = [
    ("CC[C@H](C)[C@H](N)CN(C(=O)[C@@H]1C[C@H]1c1ccccc1)c1ccc(-c2ccc(C(=O)N(C)C)cc2)cc1", "UniProtKB Q9GZN0", 6.01),
    ("CC[C@H](C)[C@H](N)CN(C(=O)[C@@H]1C[C@H]1c1ccccc1F)c1ccc(-c2ccccc2)cc1", "UniProtKB Q9GZN0", 6.19),
    ("CC(C)(C)[C@H](N)CN(C(=O)[C@@H]1C[C@H]1c1ccccc1)c1ccc(-c2ccccc2)cc1", "UniProtKB Q9GZN0", 7.96),
    ("CC(C)C[C@H](N)CN(C(=O)[C@@H]1C[C@H]1c1ccccc1)c1ccccc1-c1ccccc1", "UniProtKB Q9GZN0", 5.21),
    ("CC[C@H](C)[C@H](N)CN(C(=O)[C@@H]1C[C@H]1c1ccccc1)c1ccc(-c2ccc(Oc3ccccc3)cc2)cc1", "UniProtKB Q9GZN0", 7.03),
]

a = Cc1ccc(-c2ccc(N(C[C@@H](N)CC(C)C)C(=O)[C@@H]3C[C@H]3c3ccccc3)cc2)cc1
b = CC[C@H](C)[C@H](N)CN(C(=O)[C@@H]1C[C@H]1c1ccccc1)c1ccc(-c2ccc(OC)cc2)cc1
I'm curious whether a or b has the smaller pEC50 number. Which is it? Reply with the label of the item you choose.
a

a = CC(C)C[C@H](N)CN(C(=O)[C@@H]1C[C@H]1c1ccccc1)c1ccc(-c2ccncc2)cc1
b = COc1ccc(-c2ccc(N(C[C@@H](N)CC(C)C)C(=O)[C@@H]3C[C@H]3c3ccccc3)cc2)cc1
c = CC(C)C[C@H](N)CN(C(=O)[C@@H]1C[C@H]1c1ccccc1)c1ccc(-c2ccccc2F)cc1
Could you please order the items by pEC50, going from the lowest number to the highest? Please respond with the labels ordered as the question requires.
a, c, b
(a: 4.89, c: 5.80, b: 6.48)
